Numbers sourced from PubChem BioAssay (NCI).

Tested on: SNB-19 CNS
Experiment: NCI-60 one-dose screen, 48 h
Conditions: 10 µM unless noted
Compounds without any hit were thinned out: in the full panel of roughly 83,000, 20% have a hit. The source made the active and inactive calls. The calls were made as follows: active = growth percent below 10; inactive = the rest.
One label from this list, please: yes (active), no (inactive)

Inquiry: Could you check what this test reported for OC1CSSC1Cn1cnc2c(Nc3ccc(F)c(Cl)c3)ncnc21 (stereo not drawn) ?
Reply text: no

Inquiry: What did this assay record as the result for `[2H]C([2H])([2H])Oc1ccc(/C=C/C(=O)/C=C(O)/C=C/c2ccc(OC([2H])([2H])[2H])c(OC([2H])([2H])[2H])c2)cc1OC([2H])([2H])[2H]` ?
Reply text: no

Inquiry: Recorded test outcome, item `CC(C)(C)n1cc(-c2ccnc(NCCNS(=O)(=O)c3cccc4ccccc34)c2)c(-c2cccc(O)c2)n1`
Reply text: no

Inquiry: Can you look up the reported call for `C=C1C(=O)O[C@H]2[C@H]1CC/C(CNC(=O)/C=C/c1cc(OC)c(OC)c(OC)c1)=C\CC[C@@]1(C)O[C@@H]21` for me?
Reply text: no

Inquiry: For this compound, state the assay outcome: `CCNc1nc(-c2ccc(Cl)c(OC)c2)c(-c2ccnc(NCCNS(=O)(=O)c3ccc(Cl)cc3)n2)s1`
Reply text: no

Inquiry: Hi, do you know how `O=C(NC1CCCCCC1)c1ccc2c(=O)n3c(nc2c1)CCCCC3` came out in this test?
Reply text: no

Inquiry: Record lookup: outcome of this test for `O=C(/C=C\c1ccc(O)c(O)c1)c1ccccc1O` ?
Reply text: no

Inquiry: Entry `CCN(CC)CCOc1ccc(/C(=C(\C)Cc2ccc(OC)cc2)c2ccc(O)cc2)cc1` : call = ?
Reply text: no

Inquiry: What did this assay record as the result for `O=C(CSc1nc(-c2ccccc2)cn1-c1ccc(Cl)cc1)c1ccc([N+](=O)[O-])cc1` ?
Reply text: no

Inquiry: Entry `COc1ccc(CNc2ccc3nc(CCC4CCCCC4)[nH]c3c2)cc1` : call = ?
Reply text: no

Inquiry: Recorded call for `C=C(C)Cn1c(SCC(=O)c2cccs2)nc2sc3c(c2c1=O)CCCC3` ?
Reply text: no

Inquiry: I'd appreciate the recorded outcome for `C#C[C@]1(O)CC[C@H]2[C@@H]3CC=C4c5sc(-c6cccc(C)c6)nc5CC[C@]4(C)[C@H]3CC[C@@]21C` from this test.
Reply text: no

Inquiry: How did this test come out for `CCN1CCN(c2nc(NNC(=O)c3ccc(OC)cc3)nc(N3CCN(C(c4ccccc4)c4ccccc4)CC3)n2)CC1` ?
Reply text: no

Inquiry: Test call, this compound: `COc1ccc(CNc2c3ccccc3nc3ccccc23)cc1OC`
Reply text: no

Inquiry: Which outcome was assigned to `Cc1ccc2c(n1)C[C@H](C(C)(C)O)CC[C@H]2C` in this test?
Reply text: no

Inquiry: Short answer needed: outcome of this test for O=C1CC2C=CCN2C=C1NC(=O)c1ccccc1 (stereo not drawn) ?
Reply text: no

Inquiry: Identify the outcome logged in this assay for the compound shown: `CCCCN(CCC#N)C(N)=O`
Reply text: no

Inquiry: Look up the recorded call for `COc1ccc(Nc2nc(Nc3cc(C)[nH]n3)c3cc(OC)c(OC)cc3n2)cc1` in this test.
Reply text: yes

Inquiry: What did this assay record as the result for `Brc1ccc(-c2nn(-c3ccccc3)cc2-c2nn[nH]n2)s1` ?
Reply text: no

Inquiry: For `CCCc1cc(CCC)n2nc(N)nc2n1` , what call appears in the results of this test?
Reply text: no

Inquiry: Write down the call the test reported for this compound. Item: `O=C1N/C(=N/N=C(c2ccccc2)c2ccccc2)S/C1=C\c1ccc(Br)cc1`
Reply text: no

Inquiry: Look up the recorded call for C#CCOc1ccc(C2=NN(C)C3N=C(Cl)c4ncn(C)c4N23)cc1OCC#C (stereo not drawn) in this test.
Reply text: no

Inquiry: Per the records of this test, what outcome belongs to `C=C(C)[C@@H]1CC[C@]2(COC(=O)c3cccnc3)CC[C@]3(C)[C@H](CC[C@@H]4[C@@]5(C)CCCN(C(=O)c6cccnc6)C(C)(C)[C@@H]5CC[C@]43C)[C@@H]12` ?
Reply text: no
